# targetOrSystem: hOGA (Homo sapiens)
# Construct: endogenous in cells; host or cells: HEK293 cells inducible for P301L mutant human Tau (isoform 2N4R)
# measurementNotes: OGA cellular assay (ICC detection of O-GlcNAcylated proteins in HEK293 cells inducible for P301L mutant human Tau)
# Type: cell-based
# conditionsUsed: Cellular hOGA; pEC50, Table 5; HEK293 P301L Tau cells, 6 hours incubation, O-GlcNAcylation readout
pEC50: −log10 of the molar value.

>  <molecule>
Cc1cc(OC(F)(F)F)cc(C)c1Nc1nccc2c1ncn2CC(=O)N(C)C [Compound 9]

>  <boundOperator>
=

>  <pEC50>
7.23

$$$$
>  <molecule>
CC(C)c1cc(F)cc(Cl)c1Nc1nccc2c1ncn2CC(=O)N(C)C [Compound 47]

>  <boundOperator>
=

>  <pEC50>
7.17

$$$$
>  <molecule>
Cc1ccc(-n2nc(C)c(Nc3nccc4c3ncn4CC(=O)N(C)C)c2C)cc1C [Compound 42]

>  <boundOperator>
=

>  <pEC50>
6.53

$$$$
>  <molecule>
Cc1cc(C(F)(F)F)cc(F)c1Nc1nccc2c1ncn2CC(=O)N(C)C [Compound 25]

>  <boundOperator>
<

>  <pEC50>
6.00

$$$$
>  <molecule>
Cc1ccnc(C(C)C)c1Nc1nccc2c1cnn2CC(=O)N(C)C [Compound 65]

>  <boundOperator>
<

>  <pEC50>
6.00

$$$$
>  <molecule>
CCCCn1ncc2c(Nc3c(Cl)cncc3Cl)nccc21 [Compound 67]

>  <boundOperator>
<

>  <pEC50>
6.00

$$$$
>  <molecule>
COc1cc(C)c(Nc2nccc3c2ncn3CC(=O)N(C)C)c(C)c1 [Compound 8]

>  <boundOperator>
=

>  <pEC50>
7.57

$$$$
>  <molecule>
Cc1cc(C(F)(F)F)cc(C)c1Nc1nccc2c1cnn2CC(=O)N(C)C [Compound 64]

>  <boundOperator>
=

>  <pEC50>
6.63

$$$$
>  <molecule>
Cc1cc(C(F)(F)F)nc(C)c1Nc1nccc2c1ncn2CC(=O)N1CCC1 [Compound 51]

>  <boundOperator>
<

>  <pEC50>
6.00

$$$$

----------
# targetOrSystem: hOGA (Homo sapiens)
# Construct: endogenous in cells; host or cells: HEK293 cells inducible for P301L mutant human Tau (isoform 2N4R)
# Sequence (O60502 1-916): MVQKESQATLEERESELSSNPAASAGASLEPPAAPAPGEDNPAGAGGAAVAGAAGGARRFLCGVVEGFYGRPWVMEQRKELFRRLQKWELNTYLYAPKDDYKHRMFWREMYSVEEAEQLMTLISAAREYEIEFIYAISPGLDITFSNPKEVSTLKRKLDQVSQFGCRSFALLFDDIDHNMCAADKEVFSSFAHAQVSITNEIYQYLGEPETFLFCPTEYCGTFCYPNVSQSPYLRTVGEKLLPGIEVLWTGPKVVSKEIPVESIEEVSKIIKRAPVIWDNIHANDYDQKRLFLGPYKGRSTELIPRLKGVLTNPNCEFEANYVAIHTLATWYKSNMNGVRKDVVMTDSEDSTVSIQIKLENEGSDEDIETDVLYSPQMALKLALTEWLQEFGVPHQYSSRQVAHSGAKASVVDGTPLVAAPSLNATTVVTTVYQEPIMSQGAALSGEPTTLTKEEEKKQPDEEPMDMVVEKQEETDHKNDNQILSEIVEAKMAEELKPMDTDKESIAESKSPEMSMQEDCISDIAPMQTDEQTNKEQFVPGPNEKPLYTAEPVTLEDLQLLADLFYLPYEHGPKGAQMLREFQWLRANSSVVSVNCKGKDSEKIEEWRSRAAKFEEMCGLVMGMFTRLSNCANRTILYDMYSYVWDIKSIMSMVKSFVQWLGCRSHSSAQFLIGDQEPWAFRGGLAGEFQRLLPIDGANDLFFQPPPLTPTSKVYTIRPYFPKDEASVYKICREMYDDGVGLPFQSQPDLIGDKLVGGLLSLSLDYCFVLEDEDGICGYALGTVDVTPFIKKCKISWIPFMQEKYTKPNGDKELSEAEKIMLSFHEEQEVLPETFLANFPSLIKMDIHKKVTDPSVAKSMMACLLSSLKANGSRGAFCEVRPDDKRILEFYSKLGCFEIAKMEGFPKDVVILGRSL
# measurementNotes: OGA cellular assay (ICC detection of O-GlcNAcylated proteins in HEK293 cells inducible for P301L mutant human Tau)
# Assay type: cell-based
# conditionsUsed: Cellular hOGA; pEC50, Table 5; HEK293 P301L Tau cells, 6 hours incubation, O-GlcNAcylation readout
# Method: HEK293 cells inducible for P301L mutant human Tau (isoform 2N4R) were established at Janssen. Thiamet-G was used for both plate validation (high control) and as reference compound (reference EC50 assay validation). OGA inhibition is evaluated through the immunocytochemical (ICC) detection of O-GlcNAcylated proteins by the use of a monoclonal antibody (CTD110.6; Cell Signaling, #9875) detecting O-GlcNAcylated residues as previously described (Dorfmueller et al. 2010 Chemistry & biology, 17:1250). […]
pEC50: −log10 of the molar value.
metricName: pEC50

>  <smilesInput>
Cc1ccc(C(F)(F)F)c(C)c1Nc1nccc2c1ncn2CC(=O)N(C)C

>  <metricName>
pEC50

>  <boundOperator>
=

>  <reportedResult>
6.20

$$$$
>  <smilesInput>
Cc1cc(C)c(Nc2nccc3c2ncn3CC(=O)N(C)C)c(C)c1

>  <metricName>
pEC50

>  <boundOperator>
=

>  <reportedResult>
6.27

$$$$
>  <smilesInput>
Cc1cc(C(F)(F)F)cc(C)c1Nc1ncc(F)c2c1ncn2CC(=O)N(C)C

>  <metricName>
pEC50

>  <boundOperator>
<

>  <reportedResult>
6.00

$$$$
>  <smilesInput>
Cc1cc(C(F)(F)F)nc(C)c1Nc1nccc2c1ncn2CC(=O)N(C)C

>  <metricName>
pEC50

>  <boundOperator>
=

>  <reportedResult>
5.99

$$$$
>  <smilesInput>
Cc1cc(OC(F)(F)F)cc(Cl)c1Nc1nccc2c1ncn2CC(=O)N(C)C

>  <metricName>
pEC50

>  <boundOperator>
=

>  <reportedResult>
6.50

$$$$
>  <smilesInput>
Cc1cc(F)cc(F)c1Nc1nccc2c1ncn2CC(=O)N(C)C

>  <metricName>
pEC50

>  <boundOperator>
<

>  <reportedResult>
6.00

$$$$
>  <smilesInput>
CCCCn1cnc2c(Nc3c(C)cc(F)cc3C)nccc21

>  <metricName>
pEC50

>  <boundOperator>
=

>  <reportedResult>
6.29

$$$$
>  <smilesInput>
Cc1ccnc(C(C)C)c1Nc1nccc2c1ncn2CC(=O)N(C)C

>  <metricName>
pEC50

>  <boundOperator>
=

>  <reportedResult>
6.37

$$$$
>  <smilesInput>
Cc1nccc(C(F)F)c1Nc1nccc2c1ncn2CC(=O)N(C)C

>  <metricName>
pEC50

>  <boundOperator>
<

>  <reportedResult>
6.00

$$$$
>  <smilesInput>
[2H]C([2H])([2H])N(C(=O)Cn1cnc2c(Nc3c(C)cc(C(F)(F)F)cc3C)nccc21)C([2H])([2H])[2H]

>  <metricName>
pEC50

>  <boundOperator>
=

>  <reportedResult>
6.87

$$$$
>  <smilesInput>
Cc1cc(C(F)(F)F)cc(C)c1Nc1ncc(C)c2c1ncn2CC(=O)N(C)C

>  <metricName>
pEC50

>  <boundOperator>
=

>  <reportedResult>
6.54

$$$$
>  <smilesInput>
Cc1cc(C(F)(F)F)cc(C)c1Nc1nccc2c1ncn2CC(=O)N(C)C1CC1

>  <metricName>
pEC50

>  <boundOperator>
=

>  <reportedResult>
6.86

$$$$
>  <smilesInput>
Cc1cc(C#N)cc(C)c1Nc1nccc2c1ncn2CC(=O)N(C)C

>  <metricName>
pEC50

>  <boundOperator>
=

>  <reportedResult>
6.33

$$$$
>  <smilesInput>
Cc1cc(C)cc(-n2nc(C)c(Nc3nccc4c3ncn4CC(=O)N(C)C)c2C)c1

>  <metricName>
pEC50

>  <boundOperator>
=

>  <reportedResult>
6.36

$$$$
>  <smilesInput>
Cc1cc2c(cnn2C)c(C)c1Nc1nccc2c1ncn2CC(=O)N(C)C

>  <metricName>
pEC50

>  <boundOperator>
=

>  <reportedResult>
7.16

$$$$
>  <smilesInput>
Cc1n[nH]c(C)c1Nc1nccc2c1ncn2CC(=O)N(C)C

>  <metricName>
pEC50

>  <boundOperator>
<

>  <reportedResult>
6.00

$$$$
>  <smilesInput>
CN(C)C(=O)Cn1cnc2c(Nc3c(Cl)cc(OC(F)(F)F)cc3Cl)nccc21

>  <metricName>
pEC50

>  <boundOperator>
=

>  <reportedResult>
6.43

$$$$
>  <smilesInput>
Cc1cc2c(ncn2CC(=O)N(C)C)c(Nc2c(C)cc(C(F)(F)F)cc2C)n1

>  <metricName>
pEC50

>  <boundOperator>
<

>  <reportedResult>
6.00

$$$$

Ref: patent US20230099293A1
